protocol description: in vitro
cond: human, plasma, PPB
Returns Met if the recorded fraction unbound at 5 h is greater than or equal to 0.03, and Not met otherwise.

// below: answered compounds
compound	label class
Nc1nc2ccc(-c3ccncc3)cc2s1	Met
COc1ncc(-c2ccccc2C(F)(F)CNC(=O)c2ccc(COCC(F)(F)F)nc2)cn1	Not met
CC(=O)Nc1cnc2ccn(-c3cc(NC4CC4)n4ncc(C#N)c4n3)c2c1	Not met

Q. Hi, just wondering whether CC(C)C[C@H](NC(=O)[C@H](Cc1ccccc1)NC(=O)c1cnccn1)B(O)O [BORTEZOMIB] shows fraction unbound at 5 h of 0.03 or higher.
A. Met

Q. Please give the result for NC(=O)[C@H](Cc1ccccc1)NC(=O)OCc1ccccc1 too.
A. Met
